Experiment: MM1S cell viability effects, profiling panel, calcein-AM fluorescence, 48 h, basal (AID 1165);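 further: viability of MM1S multiple myeloma cells under basal unstimulated conditions; test concentration not given here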
Conditions: higher = more signal
measured property: z-score
API note: the answer field is a bare number with no unit suffix.

// recorded z-score for COCCOC(=O)N1C(=O)[C@@]2(c3cc(C#CC4(O)CCCCCC4)ccc31)[C@H](C(N)=O)[C@H]1C(=O)O[C@H](c3ccccc3)[C@H](c3ccccc3)N1[C@@H]2c1ccc(OCCO)cc1 : -2.99

Others:
// recorded z-score for COCCCNC(=O)[C@@]1(Cc2ccccc2I)c2ccccc2C(=O)N(Cc2ccccc2C(F)(F)F)[C@H]1c1ccc(CO)cc1 : -1.14

// recorded z-score for CCOC(=O)C1=C[C@@H](C(C)(C)C)N(S(=O)(=O)c2ccc(C)cc2)[C@H]1c1ccc(OC)cc1 : -1.04

// recorded z-score for C=C1C(=O)C=C2CN(C(=O)c3ccccc3)[C@@](Cc3ccc(F)cc3)(C(=O)OC)[C@@H]12 : -3.36
